Known EC50 of a selection of binders
Target: T1, recombinant human soluble gpNMB (recombinant human gpNMB-FLAG-His) (human, UniProt Q14956 23-498)
T1 sequence: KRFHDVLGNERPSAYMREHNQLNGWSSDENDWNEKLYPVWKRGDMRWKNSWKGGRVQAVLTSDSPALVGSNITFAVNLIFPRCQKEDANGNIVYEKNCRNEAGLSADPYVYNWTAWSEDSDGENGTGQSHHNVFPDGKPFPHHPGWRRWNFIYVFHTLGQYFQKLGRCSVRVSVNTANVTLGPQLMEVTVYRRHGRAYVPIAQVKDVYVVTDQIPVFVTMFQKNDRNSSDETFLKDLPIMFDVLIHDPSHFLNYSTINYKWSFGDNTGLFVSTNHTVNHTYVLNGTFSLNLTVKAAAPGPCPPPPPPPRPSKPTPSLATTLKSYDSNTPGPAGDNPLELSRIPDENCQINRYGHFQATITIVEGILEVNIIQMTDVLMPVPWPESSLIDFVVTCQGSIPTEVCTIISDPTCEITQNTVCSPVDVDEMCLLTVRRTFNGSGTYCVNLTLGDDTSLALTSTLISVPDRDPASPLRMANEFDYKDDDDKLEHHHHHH
Assay: antigen ELISA
Measure name: EC50 (nM)

# Binder, Measure name, Result units, Reported value
measured = [
    ("hGPN06-1_H1L1 VH F57A (antibody, V domains shown) VH: QVQLVQSGAEVKKPGASVKVSCKASGYTFTDNWMGWVKQRPGQGLEWIGAIDPSDSATNYNQNFKGRVTMTVDTSISTAYMELSRLRSDDSAVYFCTRSGYYGSPKLGGDYWGQGTLVTVSS VL: EIVLTQSPSSLSASVGDRVTITCSASSSISYMHWYQQKSGTAPKLLIYSTSNLASGVPSRFSGSGSGTDFTFTISSLQPEDAATYYCHQWNSYPCTFGGGTKLEIK", "EC50", "nM", 32.5),
    ("hGPN06-1_H1L1 VH N32A (antibody, V domains shown) VH: QVQLVQSGAEVKKPGASVKVSCKASGYTFTDAWMGWVKQRPGQGLEWIGAIDPSDSFTNYNQNFKGRVTMTVDTSISTAYMELSRLRSDDSAVYFCTRSGYYGSPKLGGDYWGQGTLVTVSS VL: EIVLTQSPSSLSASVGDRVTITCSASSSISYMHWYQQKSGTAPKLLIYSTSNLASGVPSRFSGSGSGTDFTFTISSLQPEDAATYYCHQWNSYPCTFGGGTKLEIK", "EC50", "nM", 7.83),
    ("hGPN06-1_H1L1 VH D31A (antibody, V domains shown) VH: QVQLVQSGAEVKKPGASVKVSCKASGYTFTANWMGWVKQRPGQGLEWIGAIDPSDSFTNYNQNFKGRVTMTVDTSISTAYMELSRLRSDDSAVYFCTRSGYYGSPKLGGDYWGQGTLVTVSS VL: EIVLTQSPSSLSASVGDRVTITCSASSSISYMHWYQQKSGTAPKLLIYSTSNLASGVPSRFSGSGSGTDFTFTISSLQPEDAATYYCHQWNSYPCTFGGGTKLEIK", "EC50", "nM", 0.515),
]
